# procedure-summary: Sitagliptin plasma pharmacokinetics in adults after single-unit UCB HCT
# Assay type: in vivo, human
# assay-setup: human, plasma, po, 600 mg
readout-kind: Vd/F
The reply must contain the numeric value and, after it, the unit.

Summary for this compound, N[C@@H](CC(=O)N1CCn2c(nnc2C(F)(F)F)C1)Cc1cc(F)c(F)cc1F [sitagliptin] : Vd/F is 176 L

Data provenance is paper PMC4133124.
